System: Enterococcus sp.
PROTOCOL_TEXT: Antibacterial activity against Enterococcus species
Format: functional
PARAMETER: MIC90 (µg/mL)
Please reply with the bare figure in µg/mL and do not write the unit itself.

Below are worked cases with known answers.
[ask] Recorded MIC90 for CC(=O)NC[C@H]1CN(c2ccc(N3CCOCC3)c(F)c2)C(=O)O1 [LINEZOLID] , please?
[reply] 4

[ask] What about this compound? COc1cc(Cc2cnc(N)nc2N)c2c(c1OC)OC(C1CC1)C=C2 (centres undefined)
[reply] 0.12

[ask] Can you handle CN[C@H](CC(C)C)C(=O)N[C@H]1C(=O)N[C@@H](CC(N)=O)C(=O)N[C@H]2C(=O)N[C@H]3C(=O)N[C@H](C(=O)N[C@H](C(=O)O)c4cc(O)cc(O)c4-c4cc3ccc4O)[C@H](O)c3ccc(c(Cl)c3)Oc3cc2cc(c3O[C@@H]2O[C@H](CO)[C@@H](O)[C@H](O)[C@H]2O[C@H]2C[C@](C)(N)[C@H](O)[C@H](C)O2)Oc2ccc(cc2Cl)[C@H]1O [VANCOMYCIN] next?
[reply] 2

Next compound, please.
[ask] # get_value(readout='MIC90', item= COc1cc(Cc2cnc(N)nc2N)cc(OC)c1OC [TRIMETHOPRIM] )
[reply] 8

====

Assay system Streptococcus pyogenes (Streptococcus pyogenes); read-out recorded as MIC90.
Could you give me the number in µg/mL? Just the number is fine.

Previously resolved entries follow.
[ask] Entry under review: CC(=O)NC[C@H]1CN(c2ccc(N3CCOCC3)c(F)c2)C(=O)O1 [LINEZOLID] . Reported MIC90?
[reply] 2

[ask] Also check CN[C@H](CC(C)C)C(=O)N[C@H]1C(=O)N[C@@H](CC(N)=O)C(=O)N[C@H]2C(=O)N[C@H]3C(=O)N[C@H](C(=O)N[C@H](C(=O)O)c4cc(O)cc(O)c4-c4cc3ccc4O)[C@H](O)c3ccc(c(Cl)c3)Oc3cc2cc(c3O[C@@H]2O[C@H](CO)[C@@H](O)[C@H](O)[C@H]2O[C@H]2C[C@](C)(N)[C@H](O)[C@H](C)O2)Oc2ccc(cc2Cl)[C@H]1O [VANCOMYCIN]
[reply] 1

[ask] Also COc1cc(Cc2cnc(N)nc2N)c2c(c1OC)OC(C1CC1)C=C2 (centres undefined) , if possible.
[reply] 0.03

Now, please, on to the next compound.
[ask] Entry COc1cc(Cc2cnc(N)nc2N)cc(OC)c1OC [TRIMETHOPRIM] has what MIC90?
[reply] 64

====

Tested on: Moraxella catarrhalis
PROTOCOL_TEXT: Antibacterial activity against Moraxella catarrhalis
Format: functional
Listed below: MIC90 values for each entry.
// note: answer is a bare numeric in µg/mL

[ask] Give MIC90 (Moraxella catarrhalis) of the following molecule: COc1cc(Cc2cnc(N)nc2N)cc(OC)c1OC
[reply] 128

More entries:
[ask] Form: Entry = CN[C@H](CC(C)C)C(=O)N[C@H]1C(=O)N[C@@H](CC(N)=O)C(=O)N[C@H]2C(=O)N[C@H]3C(=O)N[C@H](C(=O)N[C@H](C(=O)O)c4cc(O)cc(O)c4-c4cc3ccc4O)[C@H](O)c3ccc(c(Cl)c3)Oc3cc2cc(c3O[C@@H]2O[C@H](CO)[C@@H](O)[C@H](O)[C@H]2O[C@H]2C[C@](C)(N)[C@H](O)[C@H](C)O2)Oc2ccc(cc2Cl)[C@H]1O | System = Moraxella catarrhalis | MIC90 = ____
[reply] 64

[ask] Follow-up entry: COc1cc(Cc2cnc(N)nc2N)c2c(c1OC)OC(C1CC1)C=C2 (centres undefined)
[reply] 4

[ask] What do you get for CC(=O)NC[C@H]1CN(c2ccc(N3CCOCC3)c(F)c2)C(=O)O1 ?
[reply] 8

Values from ChEMBL document CHEMBL1136461
